test system: MALME-3M melanoma; assay: NCI-60 one-dose screen, 48 h (100 = growth as untreated, 0 = no growth, -100 = all killed); conditions: 10 µM unless noted
This is part of a sample that, as a whole, favours compounds with a hit. Of some 83,000 tested, about 20% had one in any assay.
Measured growth values are reported for all entries that follow.
RECORDED ENDPOINT: growth (%)

COMPOUND	EXPERIMENTAL VALUE
Cc1ccc(Cc2cnc(NC(=O)/C(C#N)=C/c3ccc(-c4ccc(Cl)cc4)o3)s2)cc1	98.8
N/C(=N\c1nc2c(Cl)cccc2s1)C(Cl)(Cl)Cl	104
CCOC(=O)Nc1cccc(-n2cnc3cc(-c4ccc(O)cc4)ccc32)c1	77.7
CCC(C)[C@H]1OC(=O)[C@H](C(C)C)N(C)C(=O)[C@@H](C(C)C)OC(=O)[C@H](C(C)C)N(C)C(=O)[C@@H](C(C)CC)OC(=O)[C@H](C(C)C)N(C)C1=O (some centres not stated)	7.55
CCOC(=O)c1c(NCC(=O)Nc2ccc(Br)cc2)sc2c1CCCC2	21.7
COc1cc([C@H]2OC[C@H]3[C@@H]2CO[C@@H]3c2ccc(O)c(OC)c2)ccc1O	106
Clc1ccc(-c2csc(Nc3cccc(Nc4csc(-c5ccc(Cl)cc5)n4)c3)n2)cc1	98
C=C(C)[C@@H]1CC[C@]2(COS(C)(=O)=O)CC[C@]3(C)[C@H](CC[C@@H]4[C@@]5(C)CCCNC(C)(C)[C@@H]5CC[C@]43C)[C@@H]12	97
O=C(c1cccc(F)c1)n1ccc2cc(NC(=S)Nc3cccnc3)ccc21	92.7
C/C(=C(/c1ccc(O)cc1)c1ccc(OCCN2CCCC2)cc1)c1ccc(Cl)cc1	-39.9
COc1cc(C2CC(c3ccc(Nc4nc(NCCO)nc(Nc5ccc(Cl)cc5)n4)cc3)=Nc3c(N)nc(N)nc3N2)cc(OC)c1OC (configuration not stated)	85.7
C#C[C@]1(O)CC[C@H]2[C@@H]3CC=C4c5sc(Nc6ccc(OC)nc6)nc5CC[C@]4(C)[C@H]3CC[C@@]21C	55.2
O=C1c2c(c3c4cccnc4[nH]c3c3ccc4ccccc4c23)C(=O)N1CCN1CCOCC1	64.4
O=C(NNc1nc2cc(F)cc(F)c2n2cccc12)c1ccncn1	28.3
O=C1NC(=O)c2c1c1c3ccccc3ccc1c1[nH]c3ccccc3c21	-15.2
c1ccc(-c2c(-c3ccccc3)[n+](Cc3ccc4ccccc4c3)c(-c3ccccc3)n2Cc2ccc3ccccc3c2)cc1	-82.5
O=c1oc2ccc(-c3ccc(F)cc3F)cc2c(=O)n1-c1ccc(F)c(F)c1	-14.6
Cc1ccc(NC(=O)c2ccc(CN3CCN(C)CC3)c(C(F)(F)F)c2)cc1Oc1ccc(-c2[nH]nc3ncnc(N)c23)cc1	-12
O=C(Nc1cccc(Cl)c1)Nc1nc2ccc([N+](=O)[O-])cc2s1	-9.22
COc1cc(NC2=C(Cl)C(=O)c3nc(C)ccc3C2=O)cc(OC)c1	-89.4
O=C1NC(=O)/C(=C/c2ccc(OCc3cc4ccccc4nc3Cl)cc2)S1	103
COC[C@@]1(C)CC[C@]2(C)CC[C@]3(C)C(=CC[C@@H]4[C@@]5(C)CCCNC(C)(C)[C@@H]5CC[C@]43C)C2C1 (some centres not stated)	56.7
CCOC(=O)CC(=O)CSC1=NC2C(NN1)N(C)C(=O)N2C (configuration not stated)	61.6
O=C1Nc2ccc(Br)cc2/C1=N\c1nnc(-c2ccc(Cl)cc2)o1	34.1
CN1CCN(Cc2ccc(NC(=O)c3cncc(C#Cc4cnc5ccc(NC6CCOCC6)nn45)c3)cc2C(F)(F)F)CC1	-86.5
NC(=O)c1c(NC(=O)c2cccc(C(F)(F)F)c2F)sc2c1CCC(=O)C2	19.4
CN1CCN(Cc2ccc(NC(=O)c3cncc(C#Cc4[nH]nc5ncncc45)c3)cc2C(F)(F)F)CC1	-5.86
CCOC(=O)c1c(NCC(=O)Nc2cccc([N+](=O)[O-])c2)sc2c1CCCC2	-63.9
Cc1nn(-c2ccc(Br)cc2)c2nc(CCl)[nH]c(=O)c12	106
CC(C)C(=O)Nc1ccc(-c2nc(-c3cccc(O)c3)c(-c3ccnc(Br)c3)[nH]2)cc1	40.8
CCOC(=O)/C(F)=C/C1CC1C1CCCCC1 (configuration not stated)	97.9
O=C1c2c(c3c4ccc(Br)cc4oc3c3[nH]c4ccccc4c23)C(=O)N1CCO	65.4
O=C(N/N=C\c1ccc(Cl)cc1)c1ccc2nc(-c3ccc(Br)cc3)[nH]c2c1	-59
CN1CCN(c2nc(-c3csc(-c4ccncc4)n3)cc3ccccc23)CC1	30.7
Oc1ccccc1-c1nnc(SCc2ccc(O)c3ncccc23)o1	30.3
CCCC(=O)NC(c1cccnc1)c1cc(Cl)c2cccnc2c1O (configuration not stated)	79.6
C=C(C)[C@@H]1CC[C@]2(C(=O)ON)CC[C@]3(C)[C@H](CC[C@@H]4[C@@]5(C)C/C(=C/c6ccc(Br)cc6)C(=O)C(C)(C)[C@@H]5CC[C@]43C)[C@@H]12	83.2

Data origin, for the record: PubChem BioAssay (NCI)
